- run-conditions: 343.2 K; 101 kPa; Liquid mixture 1; Drop weight
Please go through the items and note down their interfacial tension.
# unit: mN/m | format: bare number

Lookup: Can you share its interfacial tension? I mean this molecule: CCCCCCCC [octane] + O
Found: 46.82

Lookup: Tell me the measured interfacial tension of CCCCCCC [heptane] + O , please.
Found: 46.7

Lookup: Which interfacial tension is listed for CCCCCCO [hexan-1-ol] + O ?
Found: 7.87

Lookup: Query: interfacial tension; subject: CCCCCCCO [heptan-1-ol] + O
Found: 6.46

Lookup: interfacial tension lookup needed for CCCCCCCCO [octan-1-ol] + O , thanks.
Found: 9.02

Lookup: What does the record list as interfacial tension for CCCCCCCCC [nonane] + O ?
Found: 46.96

---

- run-conditions: 308.2 K; 101 kPa; Liquid mixture 1; Drop weight
measured-endpoint: interfacial tension (mN/m)
# unit: mN/m | format: bare number

Lookup: Would you mind telling me what interfacial tension value was observed for CCCCCCC [heptane] + O ?
Found: 49.84

Lookup: Give its interfacial tension value. Item: CCCCCC [hexane] + O
Found: 49.68

Lookup: Which measured interfacial tension value corresponds to CCCCCCCC [octane] + O ?
Found: 50.28

Lookup: Report interfacial tension for CCCCCCCCC [nonane] + O please.
Found: 50.68

Lookup: Tell me the measured interfacial tension of c1ccccc1 [benzene] + O , please.
Found: 32.87

---

- run-conditions: 318.2 K; 101 kPa; Liquid mixture 1; Drop weight
measured-endpoint: interfacial tension (mN/m)
All answers are understood in mN/m, so give the number only.

Lookup: Which interfacial tension value belongs to CCCCCCCCC [nonane] + O ?
Found: 49.63

Lookup: Please report the recorded interfacial tension for CCCCCC [hexane] + O .
Found: 48.84

Lookup: Reported interfacial tension for c1ccccc1 [benzene] + O : what is it?
Found: 31.62

Lookup: Dear colleague, I am looking for the recorded interfacial tension of the following molecule: CCCCCCCC [octane] + O
Found: 49.31

Lookup: // query interfacial tension value for entry CCCCCCC [heptane] + O
Found: 49

---

- run-conditions: 328.2 K; 101 kPa; Liquid mixture 1; Drop weight
measured-endpoint: interfacial tension (mN/m)
The reply should contain only the number, in mN/m.

Lookup: What value of measured interfacial tension is listed for CCCCCCCC [octane] + O ?
Found: 48.34

Lookup: Quick check: interfacial tension of CCCCCC [hexane] + O ?
Found: 47.94

Lookup: Quick one: interfacial tension for CCCCCCCCC [nonane] + O ?
Found: 48.46

Lookup: Using the record for CCCCCCC [heptane] + O , report its interfacial tension.
Found: 48.1

Lookup: Value lookup for interfacial tension; key = c1ccccc1 [benzene] + O
Found: 30.92

---

For each entry below, report its interfacial tension value.
- run-conditions: 298.2 K; 101 kPa; Liquid mixture 1; Drop weight
Answer in mN/m, number only, no unit symbol.

Lookup: Would you kindly share the measured interfacial tension for CCCCCCC [heptane] + O ?
Found: 50.87

Lookup: Returns the measured interfacial tension for the input compound. Input: CCCCCCCO [heptan-1-ol] + O
Found: 6.44

Lookup: Which interfacial tension value is on record for CCCCCCO [hexan-1-ol] + O ?
Found: 7.49

Lookup: Can you share its interfacial tension? I mean this compound: CCCCCC [hexane] + O
Found: 50.49

Lookup: Entry c1ccccc1 [benzene] + O has what interfacial tension?
Found: 34.06

Lookup: State the recorded interfacial tension for this entry: CCCCCCCCC [nonane] + O
Found: 51.54

Lookup: Quick one: interfacial tension of CCCCCCCC [octane] + O ?
Found: 51.2

Lookup: Report interfacial tension for CCCCCCCCO [octan-1-ol] + O please.
Found: 8.19

---

- run-conditions: 333.2 K; 101 kPa; Liquid mixture 1; Drop weight
± gives the expanded uncertainty stated by the source.
Exercise: for every item that follows, state its recorded interfacial tension.

Lookup: Return reported interfacial tension; argument: CCCCCCCO [heptan-1-ol] + O
Found: 6.58 ± 0.12 mN/m

Lookup: Consider the compound CCCCCCC [heptane] + O and give its measured interfacial tension.
Found: 47.73 ± 0.43 mN/m

Lookup: Reported interfacial tension for c1ccccc1 [benzene] + O : what is it?
Found: 30.52 ± 0.3 mN/m

Lookup: # interfacial tension lookup, item CCCCCCO [hexan-1-ol] + O
Found: 7.9 ± 0.13 mN/m

Lookup: // lookup interfacial tension for CCCCCCCC [octane] + O
Found: 47.81 ± 0.43 mN/m

Lookup: What interfacial tension value was documented for this compound, CCCCCCCCO [octan-1-ol] + O ?
Found: 9.02 ± 0.13 mN/m

Lookup: Query: interfacial tension; subject: CCCCCCCCC [nonane] + O
Found: 48.03 ± 0.43 mN/m

Lookup: Please give the measured interfacial tension for this compound: CCCCCC [hexane] + O
Found: 46.92 ± 0.43 mN/m

---

- run-conditions: 293.2 K; 101 kPa; Liquid mixture 1; Drop weight
measured-endpoint: interfacial tension (mN/m)
Record the value in mN/m, omitting the unit from your answer.

Lookup: Can you share its interfacial tension? I mean this compound: CCCCCCC [heptane] + O
Found: 51.3

Lookup: Give its interfacial tension value. Item: CCCCCCCCO [octan-1-ol] + O
Found: 8.02

Lookup: # interfacial tension lookup, item CCCCCCO [hexan-1-ol] + O
Found: 7.37

Lookup: Value lookup for interfacial tension; key = CCCCCCCCC [nonane] + O
Found: 51.95

Lookup: Field request: interfacial tension | item: CCCCCCCO [heptan-1-ol] + O
Found: 6.37

Lookup: Data request, read-out interfacial tension, for CCCCCCCC [octane] + O
Found: 51.67

Lookup: Request the reported interfacial tension associated with c1ccccc1 [benzene] + O
Found: 34.82

Lookup: Find the recorded interfacial tension belonging to CCCCCC [hexane] + O and report it.
Found: 50.81

---

- run-conditions: 323.2 K; 101 kPa; Liquid mixture 1; Drop weight
The label depends only on interfacial tension: MET if it is at least 9 mN/m, NOT MET if it is smaller.

Lookup: // inclusive: interfacial tension at least 9 mN/m? input: CCCCCC [hexane] + O
Found: MET

Lookup: Check the entry CCCCCCCCC [nonane] + O : does interfacial tension equal or exceed 9 mN/m?
Found: MET

Lookup: Answer whether interfacial tension of CCCCCCC [heptane] + O is greater than or equal to 9 mN/m.
Found: MET

Lookup: Evaluate CCCCCCCO [heptan-1-ol] + O : interfacial tension at minimum 9 mN/m?
Found: NOT MET

Lookup: Please tell me: is the compound CCCCCCCC [octane] + O at or over 9 mN/m in terms of interfacial tension?
Found: MET

Lookup: Reported interfacial tension at or above 9 mN/m? c1ccccc1 [benzene] + O
Found: MET

Lookup: Quick check, interfacial tension >= 9 mN/m? CCCCCCO [hexan-1-ol] + O
Found: NOT MET

---

- run-conditions: 303.2 K; 101 kPa; Liquid mixture 1; Drop weight
measured-endpoint: interfacial tension (mN/m)
API: value field is a number in mN/m; no unit string.

Lookup: Look up interfacial tension for this compound: c1ccccc1 [benzene] + O
Found: 33.64

Lookup: Form field: reported interfacial tension of CCCCCC [hexane] + O
Found: 50.11

Lookup: What value of measured interfacial tension is listed for CCCCCCCCC [nonane] + O ?
Found: 51.11

Lookup: Entry CCCCCCO [hexan-1-ol] + O : reported interfacial tension = ?
Found: 7.6

Lookup: Which value of interfacial tension has been reported for CCCCCCC [heptane] + O in the records?
Found: 50.35

Lookup: # query: interfacial tension of entry CCCCCCCC [octane] + O
Found: 50.78

Lookup: interfacial tension lookup needed for CCCCCCCO [heptan-1-ol] + O , thanks.
Found: 6.52

Lookup: Item under review: CCCCCCCCO [octan-1-ol] + O . Reported interfacial tension?
Found: 8.42

---

- run-conditions: 313.2 K; 101 kPa; Liquid mixture 1; Drop weight
Numbers after ± are expanded uncertainties.
measured-endpoint: interfacial tension

Lookup: // returns reported interfacial tension for input CCCCCCCC [octane] + O
Found: 49.9 ± 0.45 mN/m

Lookup: Recorded interfacial tension for CCCCCC [hexane] + O , please?
Found: 49.28 ± 0.44 mN/m

Lookup: Which interfacial tension value is on record for CCCCCCCCC [nonane] + O ?
Found: 50.23 ± 0.45 mN/m

Lookup: Name the reported interfacial tension value associated with the compound c1ccccc1 [benzene] + O
Found: 32.1 ± 0.31 mN/m

Lookup: Report interfacial tension for CCCCCCCCO [octan-1-ol] + O please.
Found: 8.62 ± 0.13 mN/m

Lookup: Request the reported interfacial tension associated with CCCCCCCO [heptan-1-ol] + O
Found: 6.6 ± 0.12 mN/m

Lookup: Which interfacial tension value is on record for CCCCCCC [heptane] + O ?
Found: 49.6 ± 0.45 mN/m

Lookup: I am curious: what interfacial tension value has been reported for CCCCCCO [hexan-1-ol] + O ?
Found: 7.7 ± 0.13 mN/m
